B1: glmS ribozyme (parent)
chain: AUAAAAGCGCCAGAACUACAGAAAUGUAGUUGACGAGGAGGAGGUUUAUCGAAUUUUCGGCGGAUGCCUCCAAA

Variants of: B1
Assay: self-cleavage kobs at 10000 uM GlcN6P; higher = faster cleavage; RNA array
Settings: with glucosamine-6-phosphate
Fewer inactive variants are shown than the library holds.
Quick rule for you: self-cleavage kobs at 10000 uM GlcN6P at 0.0002 s⁻¹ or higher means yes, lower means no.

G60U C61G
no
A36C G37A C58G
no
G13A U46G
no
A12C U56G
yes
U46A C50G A53U C70G
no

Query: Hi team, for G35C G43U G60C , is the recorded self-cleavage kobs at 10000 uM GlcN6P at or above 0.0002 s⁻¹?
Response: no

Query: Hi team, for C11U G32C , is the recorded self-cleavage kobs at 10000 uM GlcN6P at or above 0.0002 s⁻¹?
Response: no

Query: Hi team, for C8G G43A U46G , is the recorded self-cleavage kobs at 10000 uM GlcN6P at or above 0.0002 s⁻¹?
Response: no

Query: Hi team, for G66A C67A , is the recorded self-cleavage kobs at 10000 uM GlcN6P at or above 0.0002 s⁻¹?
Response: yes

Query: Hi team, for G26U A48C , is the recorded self-cleavage kobs at 10000 uM GlcN6P at or above 0.0002 s⁻¹?
Response: yes

Query: Hi team, for U46G C68U C71U , is the recorded self-cleavage kobs at 10000 uM GlcN6P at or above 0.0002 s⁻¹?
Response: no

Query: Hi team, for G29A U30G , is the recorded self-cleavage kobs at 10000 uM GlcN6P at or above 0.0002 s⁻¹?
Response: yes

Query: Hi team, for G35A G63A , is the recorded self-cleavage kobs at 10000 uM GlcN6P at or above 0.0002 s⁻¹?
Response: no
